# Tested on: Haemophilus influenzae
# procedure-text: Antibacterial activity against Haemophilus influenzae ATCC 4976
# Type: functional
parameter-measured: MIC

Here are 5 molecules together with their reported answers.
given_smiles=C=CB(Oc1cccc2cccnc12)c1cccc(Cl)c1 result="4 µg/mL"
given_smiles=Clc1ccc(C(Oc2cccc3cccnc23)c2ccc(Cl)cc2)cc1 result="> 64 µg/mL"
given_smiles=C=CB(Oc1cccc2cccnc12)c1cccc(C#N)c1 result="2 µg/mL"
given_smiles=C=CB(Oc1cccc2cccnc12)c1ccc(Cl)cc1 result="2 µg/mL"
given_smiles=C=CB(Oc1cccc2cccnc12)c1cccc(F)c1 result="2 µg/mL"

Would you kindly look at the next entry?
Query: Which MIC is reported for this molecule? Fc1ccc(B(Oc2cccc3cccnc23)c2ccc(F)cc2)cc1
Reply: 4 µg/mL

###

# Test system: Francisella tularensis
# procedure-text: Antibacterial activity against Francisella tularensis
# Assay type: functional
parameter-measured: MIC (µg/mL)
Hi! Could you send only the number? It should be in µg/mL, unit omitted.

Here are 6 molecules together with their reported answers.
given_smiles=Clc1ccc(B(Oc2cccc3cccnc23)c2ccc(Cl)cc2)cc1 parameter_measured=MIC measured_number=0.03
given_smiles=C=CB(Oc1cccc2cccnc12)c1cccc(F)c1 parameter_measured=MIC measured_number=16
given_smiles=C=CB(Oc1cccc2cccnc12)c1cccc(C#N)c1 parameter_measured=MIC measured_number=8
given_smiles=Clc1ccc(B(Oc2ccc(Cl)c3cccnc23)c2ccc(Cl)cc2)cc1 parameter_measured=MIC measured_number=0.01
given_smiles=Clc1cccc(B(Oc2cccc3cccnc23)c2cccc(Cl)c2)c1 parameter_measured=MIC measured_number=0.01
given_smiles=C=CB(Oc1cccc2cccnc12)c1ccccc1Cl parameter_measured=MIC measured_number=16

Query: Which MIC is reported for this molecule? Cc1ccc2cccc(OB(c3ccc(Cl)cc3)c3ccc(Cl)cc3)c2n1
Reply: 6

###

# Test system: Moraxella catarrhalis
# procedure-text: Antibacterial activity against Moraxella catarrhalis
# Type: functional
parameter-measured: MIC (µg/mL)
Hi! Could you send only the number? It should be in µg/mL, unit omitted.

Query: Which MIC is reported for this compound? C=CB(Oc1cccc2cccnc12)c1ccc(Cl)cc1
Reply: 1

Query: Which MIC is reported for this compound? Clc1cccc(B(Oc2cccc3cccnc23)c2cccc(Cl)c2)c1
Reply: 2

Query: Which MIC is reported for this compound? C=CB(Oc1cccc2cccnc12)c1cccc(F)c1
Reply: 1

###

Consider the following compounds and their measured MIC readings.
# System: Haemophilus influenzae
# procedure-text: Antibacterial activity against Haemophilus influenzae ATCC 4976
# Assay type: functional
Hi! Could you send only the number? It should be in µg/mL, unit omitted.

given_smiles=Clc1ccc(B(Oc2ccc(Cl)c3cccnc23)c2ccc(Cl)cc2)cc1 parameter_measured=MIC measured_number=0.25
given_smiles=Clc1ccc(B(Oc2cccc3cccnc23)c2ccc(Cl)cc2)cc1 parameter_measured=MIC measured_number=8
given_smiles=C=CB(Oc1cccc2cccnc12)c1ccccc1Cl parameter_measured=MIC measured_number=2
given_smiles=C=CB(Oc1cccc2cccnc12)c1ccccc1 parameter_measured=MIC measured_number=16
given_smiles=C=CB(Oc1cccc2cccnc12)c1ccc(F)c(Cl)c1 parameter_measured=MIC measured_number=4

Would you kindly look at the next entry?
Query: Which MIC is reported for this compound? Clc1cccc(B(Oc2cccc3cccnc23)c2cccc(Cl)c2)c1
Reply: 8

###

# Test system: Mycobacterium tuberculosis
# procedure-text: Antibacterial activity against Mycobacterium tuberculosis H37Rv
# Assay type: functional
Consider the following compounds and their measured MIC readings.
Hi! Could you send only the number? It should be in µg/mL, unit omitted.

Here are 8 compounds together with their reported answers.
given_smiles=C=CB(Oc1cccc2cccnc12)c1cccc(C#N)c1 display_unit=µg/mL measured_number=0.62
given_smiles=C=CB(Oc1cccc2cccnc12)c1cccc(F)c1 display_unit=µg/mL measured_number=0.31
given_smiles=C=CB(Oc1cccc2cccnc12)c1cccc(Cl)c1 display_unit=µg/mL measured_number=0.62
given_smiles=Fc1ccc(B(Oc2cccc3cccnc23)c2ccc(F)cc2)cc1 display_unit=µg/mL measured_number=0.62
given_smiles=Clc1cccc(B(Oc2cccc3cccnc23)c2cccc(Cl)c2)c1 display_unit=µg/mL measured_number=0.62
given_smiles=C=CB(Oc1cccc2cccnc12)c1ccc(F)c(Cl)c1 display_unit=µg/mL measured_number=0.62
given_smiles=C=CB(Oc1cccc2cccnc12)c1ccccc1Cl display_unit=µg/mL measured_number=0.31
given_smiles=Clc1ccc(B(Oc2cccc3cccnc23)c2ccc(Cl)cc2)cc1 display_unit=µg/mL measured_number=0.31

Query: Which MIC is reported for this compound? C=CB(Oc1cccc2cccnc12)c1ccc(Cl)cc1
Reply: 0.62

Query: Which MIC is reported for this compound? Clc1ccc(B(Oc2ccc(Cl)c3cccnc23)c2ccc(Cl)cc2)cc1
Reply: 0.62
